- experimental_target: T1, human Claudin 4 with C-terminal FLAG tag (human, UniProt O14493 1-209)
- T1 construct: whole, on cells; forced expression in Ba/F3 cells; also called hCLDN4; hCLN4
- T1 sequence (looked up): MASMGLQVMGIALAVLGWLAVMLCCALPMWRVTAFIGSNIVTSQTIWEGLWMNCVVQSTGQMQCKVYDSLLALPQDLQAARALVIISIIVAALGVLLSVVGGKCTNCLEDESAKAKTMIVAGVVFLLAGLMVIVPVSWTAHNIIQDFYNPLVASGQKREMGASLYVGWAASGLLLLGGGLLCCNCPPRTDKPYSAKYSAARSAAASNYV
- protocol_text: flow cytometry, hCLDN4/Ba/F3 cells, 2 ug/mL antibody
measured_quantity: X geometric mean
Give a plain numeric answer without units written out.

// below: answered binders
{"binder": "CDN35 (antibody, V domains shown, mouse monoclonal, IgG2a/IgK) VH: EVQLQQSGPELVKPGASVKMSCKASGYTFTDYYMNWVKQSHGKSLEWIGRVNPSNGGTSYNQKFKGKATLTVDKSLSTAYMQLNSLTSEDSAVYYCARGLAYYSNSFTYWGQGTLVTVSA VL: KIVLTQSPASLAVSLRQRATISCRASESVDSYGNSFMHWYQQKPGQPPKLLIYRASNLESGVPARFSGSGSRTDFTLTIDPVEADDAATYYCQQNNEDPWTFGGGTKLEIKR", "X geometric mean": 59}
{"binder": "CDN04 (antibody, mouse IgG1, kappa, V domains shown, mouse monoclonal, IgG1/IgK; also called CDN4) VH: EVQLQQSGPELVKPGASMKISCKASGYSFTGYTMNWMKQGHGKNLEWIGLINPYNGGTSYNQKFKDKATLTLDKSSSSAYMELLSLTSEDSAVYYCARGSYGSSYFDYWGQGTTLTVSS VL: DIVMSQSPSSLAVSVGEKVTMSCKSSQSLLYGSNQKNYLAWYQQKPGQSPKLLIYWASTRESGVPDRFTGSGSGTDFTLTISSVKAEDLAVYYCQQYYNFPYTFGGGTKLEIKR", "X geometric mean": 14}

Moving on to the next binder.
Kindly note the recorded X geometric mean for CDN16 (antibody, mouse IgG2b, kappa, V domains shown, mouse monoclonal, IgG2b/IgK) VH: EVQLQQSGPELVKPGASVKMSCKASGYTFTDYYMNWVKQSHGKSLEWIGRVNPSNGGTSYNQKFKGKATLTVDKSLSTAYMQLNSLTSEDSAVYYCARGLAYYSNSFVYWGQGTLVTVSA VL: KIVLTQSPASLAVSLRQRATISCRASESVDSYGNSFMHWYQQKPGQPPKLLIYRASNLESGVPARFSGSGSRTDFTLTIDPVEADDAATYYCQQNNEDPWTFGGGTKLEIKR , which is 11
